Value source: patent US20030068675

# Measurement Target: ZFP SBS#413 (synthetic)
# Sequence (chain, as listed by the source): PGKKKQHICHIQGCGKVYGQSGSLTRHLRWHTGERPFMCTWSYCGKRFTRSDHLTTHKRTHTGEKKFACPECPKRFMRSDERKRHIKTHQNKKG
# Method Summary: EMSA
# Reported Conditions: tags: MBP fusion
Readout: pKd
# reply with the number alone; pKd is -log10 of concentration in mol/L

Q) I would be grateful if you could share the reported pKd for GCGTGGGCA (dsDNA) DNA 1: GCGTGGGCA DNA 2: TGCCCACGC .
A) 8.30
